Value source: patent US20240158418A1

Attribute: DC50
- targetOfAssay: EGFR L858R-T790M (Homo sapiens, UniProt P00533, L858R/T790M)
- Construct: NCI-H1975 (harboring EGFR heterozygous L858R-T790M mutations); host or cells: NCI-H1975
- Sequence (P00533 25-1210 T790M/L858R): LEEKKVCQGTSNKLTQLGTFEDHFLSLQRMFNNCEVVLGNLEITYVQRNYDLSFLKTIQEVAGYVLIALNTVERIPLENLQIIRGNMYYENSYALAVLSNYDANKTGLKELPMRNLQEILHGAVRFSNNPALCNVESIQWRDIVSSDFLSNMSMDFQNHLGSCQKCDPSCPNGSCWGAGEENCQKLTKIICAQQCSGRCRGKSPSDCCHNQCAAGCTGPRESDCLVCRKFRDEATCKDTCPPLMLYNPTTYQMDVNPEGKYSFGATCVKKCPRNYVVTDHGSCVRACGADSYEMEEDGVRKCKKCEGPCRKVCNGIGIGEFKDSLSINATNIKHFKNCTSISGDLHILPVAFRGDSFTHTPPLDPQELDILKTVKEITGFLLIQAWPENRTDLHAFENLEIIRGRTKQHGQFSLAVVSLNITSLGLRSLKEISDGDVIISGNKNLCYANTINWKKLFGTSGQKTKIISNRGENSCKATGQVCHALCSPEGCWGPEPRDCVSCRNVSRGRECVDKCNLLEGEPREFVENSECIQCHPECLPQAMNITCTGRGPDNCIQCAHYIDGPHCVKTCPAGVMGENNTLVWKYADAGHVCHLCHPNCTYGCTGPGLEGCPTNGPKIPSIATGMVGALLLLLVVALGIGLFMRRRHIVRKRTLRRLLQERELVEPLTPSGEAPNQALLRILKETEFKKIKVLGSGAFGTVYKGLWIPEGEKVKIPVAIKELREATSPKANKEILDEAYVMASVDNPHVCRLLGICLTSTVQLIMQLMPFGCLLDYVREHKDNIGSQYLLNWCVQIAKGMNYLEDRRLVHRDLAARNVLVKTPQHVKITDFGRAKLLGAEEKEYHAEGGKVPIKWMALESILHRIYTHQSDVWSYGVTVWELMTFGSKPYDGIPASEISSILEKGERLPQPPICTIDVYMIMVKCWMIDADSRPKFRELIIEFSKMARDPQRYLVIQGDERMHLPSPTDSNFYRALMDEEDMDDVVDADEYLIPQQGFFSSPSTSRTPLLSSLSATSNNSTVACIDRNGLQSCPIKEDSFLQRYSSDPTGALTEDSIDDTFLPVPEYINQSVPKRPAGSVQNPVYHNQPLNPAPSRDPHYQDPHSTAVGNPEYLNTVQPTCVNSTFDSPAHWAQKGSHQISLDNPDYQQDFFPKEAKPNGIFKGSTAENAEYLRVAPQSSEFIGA
- measurementProtocol: EGFR degradation, Total EGFR (L858R-specific) HTRF, NCI-H1975
- Format: cell-based
- measurementSetup: H1975 (L858R-T790M), 6 hours; read-out: tEGFR DC50
Numeric only. Scale: nM

As a guide, the following entries are already answered.
O=C1CCC(Nc2ccc(C3CCN(CC(=O)N4CC5(C4)CN(c4ccc(-c6cc(F)c7c(c6)C(=O)N(C(C(=O)Nc6nccs6)c6ncn8c6CCC8)C7)cc4)C5)CC3(F)F)cc2)C(=O)N1 (single isomer, unassigned) [Compound 4]
15
Cn1nc(N2CCC(=O)NC2=O)c2ccc([C@H]3CCN(CC(=O)N4CC5(C4)CN(c4ccc(-c6cc(F)c7c(c6)C(=O)N(C(C(=O)Nc6nccs6)c6ncn8c6CCC8)C7)cc4)C5)CC3(F)F)cc21 (stereo partly drawn) [Compound 2]
12

Exercise: Fill in the blank: the reported DC50 of O=C1CC[C@H](Nc2ccc(N3CCC(O)(CC(=O)N4CCC5(CC4)CN(c4ccc(-c6cc(F)c7c(c6)C(=O)N(C(C(=O)Nc6nccs6)c6ncn8c6CCC8)C7)cc4)C5)CC3)c(F)c2)C(=O)N1 (stereo partly drawn) [Compound 9] is ____.
Solution: 24

----------
Attribute: DC50
- targetOfAssay: EGFR L858R-T790M (Homo sapiens, UniProt P00533, L858R/T790M)
- Construct: NCI-H1975 (harboring EGFR heterozygous L858R-T790M mutations); host or cells: NCI-H1975
- measurementProtocol: EGFR degradation, Total EGFR (L858R-specific) HTRF, NCI-H1975
- Format: cell-based
- measurementSetup: Table 9B; NCI-H1975 cells, 6 hours, Total EGFR HTRF; read-out: H1975 EGFR DC50

As a guide, the following entries are already answered.
Cn1nc(N2CCC(=O)NC2=O)c2ccc([C@H]3CCN(C(=O)CN4CCC5(CC4)CN(c4ccc(-c6cc(F)c7c(c6)C(=O)N(C(C(=O)Nc6nccs6)c6ncn8c6CCC8)C7)cc4)C5)CC3(F)F)cc21 (some centres unmarked)
< 50 nM
O=C1CCN(c2ccc(N3CCC(O)(CC(=O)N4CC5(CCN(c6ccc(-c7cc(F)c8c(c7)C(=O)N(C(C(=O)Nc7nccs7)c7ncn9c7CCC9)C8)cc6)CC5)C4)CC3)c(Cl)c2)C(=O)N1 (centres unmarked)
< 50 nM
O=C1CC[C@@H](Nc2ccc(N3CCC(O)(CC(=O)N4CC5(C4)CN(c4ccc(-c6cc(F)c7c(c6)C(=O)N(C(C(=O)Nc6nccs6)c6ncn8c6CCC8)C7)cc4)C5)CC3)c(F)c2)C(=O)N1 (some centres unmarked)
< 50 nM

Exercise: # returns recorded DC50 (system: EGFR L858R-T790M (Homo sapiens, UniProt P00533, L858R/T790M)) for O=C1CCC(Nc2ccc(N3CCC(O)(CC(=O)N4CC5(C4)CN(c4ccc(-c6cc(F)c7c(c6)C(=O)N(C(C(=O)Nc6nccs6)c6ncn8c6CCC8)C7)cc4)C5)CC3)c(F)c2)C(=O)N1 (centres unmarked)
Solution: < 50 nM

Exercise: # returns recorded DC50 (system: EGFR L858R-T790M (Homo sapiens, UniProt P00533, L858R/T790M)) for O=C1CCC(Nc2ccc(N3CCCC(O)(CC(=O)N4CC5(C4)CN(c4ccc(-c6cc(F)c7c(c6)C(=O)N(C(C(=O)Nc6nccs6)c6ncn8c6CCC8)C7)cc4)C5)CC3)c(F)c2)C(=O)N1 (single isomer, unassigned; isomer b2) [Compound 167]
Solution: 50 to 150 nM

----------
- targetOfAssay: EGFR L858R-T790M (Homo sapiens, UniProt P00533, L858R/T790M)
- Construct: NCI-H1975 (harboring EGFR heterozygous L858R-T790M mutations); host or cells: NCI-H1975
- measurementProtocol: EGFR degradation, Total EGFR (L858R-specific) HTRF, NCI-H1975
- Assay type: cell-based
- measurementSetup: H1975 (L858R-T790M), 6 hours; read-out: tEGFR DC50
Attribute: DC50
Numeric only. Scale: nM

O=C1CCN(c2ccc(N3CCC(O)(CC(=O)N4CC5(C4)CN(c4ccc(-c6cc(F)c7c(c6)C(=O)N(C(C(=O)Nc6nccs6)c6ncn8c6CCC8)C7)cc4)C5)CC3)c(Cl)c2)C(=O)N1 (stereo not shown)
23
O=C1CC[C@H](Nc2ccc(N3CCC(O)(CC(=O)N4CC5(C4)CN(c4ccc(-c6cc(F)c7c(c6)C(=O)N(C(C(=O)Nc6nccs6)c6ncn8c6CCC8)C7)cc4)C5)CC3)c(F)c2)C(=O)N1 (stereo partly shown)
8
O=C1CCC(Nc2ccc(N3CCC(O)(CC(=O)N4CC5(C4)CN(c4ccc(-c6cc(F)c7c(c6)C(=O)N(C(C(=O)Nc6nccs6)c6ncn8c6CCC8)C7)cc4)C5)CC3)c(Cl)c2)C(=O)N1 (single isomer, unassigned; isomer 1)
15

Exercise: # returns recorded DC50 (system: EGFR L858R-T790M (Homo sapiens, UniProt P00533, L858R/T790M)) for O=C1CC[C@H](Nc2ccc(N3CCC(O)(CC(=O)N4CC5(CCN(c6ccc(-c7cc(F)c8c(c7)C(=O)N(C(C(=O)Nc7nccs7)c7ncn9c7CCC9)C8)cc6)CC5)C4)CC3)c(F)c2)C(=O)N1 (stereo partly shown)
Solution: 15

----------
- targetOfAssay: EGFR L858R-T790M-C797S (Homo sapiens, UniProt P00533, C797S/L858R/T790M)
- Construct: generated using CRISPR technology to introduce the additional C797S mutation by Horizon Discovery; host or cells: NCI-H1975+CS (CRISPR knock-in of C797S)
- Sequence (P00533 25-1210 T790M/C797S/L858R): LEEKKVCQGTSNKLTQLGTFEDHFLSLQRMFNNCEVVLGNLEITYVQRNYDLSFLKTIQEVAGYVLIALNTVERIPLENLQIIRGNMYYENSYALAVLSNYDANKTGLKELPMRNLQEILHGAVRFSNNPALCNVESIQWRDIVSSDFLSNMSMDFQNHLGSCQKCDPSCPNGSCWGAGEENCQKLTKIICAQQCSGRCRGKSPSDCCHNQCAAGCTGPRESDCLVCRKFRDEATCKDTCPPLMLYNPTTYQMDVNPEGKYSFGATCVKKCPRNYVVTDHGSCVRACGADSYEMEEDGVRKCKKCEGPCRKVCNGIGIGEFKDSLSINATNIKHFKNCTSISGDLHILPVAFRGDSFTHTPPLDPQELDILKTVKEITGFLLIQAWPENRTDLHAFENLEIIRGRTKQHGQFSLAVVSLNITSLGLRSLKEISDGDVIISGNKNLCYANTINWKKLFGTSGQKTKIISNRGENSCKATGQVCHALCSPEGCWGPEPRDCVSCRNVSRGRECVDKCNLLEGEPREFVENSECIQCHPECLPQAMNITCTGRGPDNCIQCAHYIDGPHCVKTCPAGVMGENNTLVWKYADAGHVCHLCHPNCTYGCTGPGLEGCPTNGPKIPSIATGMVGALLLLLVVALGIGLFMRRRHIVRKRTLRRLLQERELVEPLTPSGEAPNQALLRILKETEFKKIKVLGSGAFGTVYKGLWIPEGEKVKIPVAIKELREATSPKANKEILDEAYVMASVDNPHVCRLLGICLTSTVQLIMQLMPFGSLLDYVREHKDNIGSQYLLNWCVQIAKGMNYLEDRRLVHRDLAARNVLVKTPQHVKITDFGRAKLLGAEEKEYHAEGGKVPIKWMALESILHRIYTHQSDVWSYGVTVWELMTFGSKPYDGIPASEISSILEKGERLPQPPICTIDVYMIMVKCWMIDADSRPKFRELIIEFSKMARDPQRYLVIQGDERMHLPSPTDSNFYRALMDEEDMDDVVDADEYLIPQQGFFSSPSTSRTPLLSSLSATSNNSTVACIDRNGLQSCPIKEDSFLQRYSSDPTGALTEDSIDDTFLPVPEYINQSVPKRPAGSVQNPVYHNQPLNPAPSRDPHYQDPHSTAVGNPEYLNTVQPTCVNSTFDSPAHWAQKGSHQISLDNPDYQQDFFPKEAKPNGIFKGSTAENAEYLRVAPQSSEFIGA
- measurementProtocol: EGFR degradation, Total EGFR (L858R-specific) HTRF, NCI-H1975+CS
- Format: cell-based
- measurementSetup: Table 9B; NCI-H1975 C797S clone, 6 hours, Total EGFR HTRF; read-out: H1975 C797S clone EGFR DC50
Attribute: DC50

As a guide, the following entries are already answered.
Cn1nc(N2CCC(=O)NC2=O)c2ccc(C3CCN(CC(=O)N4CCC(NC(=O)c5ccc(C#Cc6cc(F)c7c(c6)C(=O)N(C(C(=O)Nc6nccs6)c6ncn8c6CCC8)C7)cn5)CC4)CC3(F)F)cc21 (stereo not drawn)
< 50 nM
Cn1nc(N2CCC(=O)NC2=O)c2ccc(C3CCN(CC(=O)N4CCCN(c5ccc(-c6cc(F)c7c(c6)C(=O)N(C(C(=O)Nc6nccs6)c6ncn8c6CCC8)C7)cc5)CC4)CC3(F)F)cc21 (stereo not drawn)
50 to 150 nM
O=C1CC[C@H](Nc2ccc(C3CCN(CC(=O)N4CC5(C4)CN(c4ccc(-c6ccc7cn(C(C(=O)Nc8nccs8)c8ncn9c8CCC9)nc7c6F)cn4)C5)CC3)c(F)c2)C(=O)N1 (stereo partly drawn)
< 50 nM

Exercise: Fill in the blank: the reported DC50 of O=C1CC[C@H](Nc2ccc(C3CCN(C(=O)CC4(O)CCN(c5ccc(-c6ccc7cn(C(C(=O)Nc8nccs8)c8ncn9c8CCC9)nc7c6F)cc5)CC4)CC3)c(F)c2)C(=O)N1 (stereo partly drawn) is ____.
Solution: < 50 nM

Exercise: Fill in the blank: the reported DC50 of Cn1nc(N2CCC(=O)NC2=O)c2ccc(C3CCN(CC(=O)N4CC5(C4)CN(c4ccc(-c6ccc7cn(C(C(=O)Nc8nccs8)c8ncn9c8CCC9)nc7c6F)cn4)C5)CC3(F)F)cc21 (stereo not drawn) is ____.
Solution: < 50 nM

Exercise: Fill in the blank: the reported DC50 of O=C1CCN(c2ccc(N3CCC(O)(CC(=O)N4CC5(C4)CN(c4ccc(-c6cc(F)c7cn(C(C(=O)Nc8nccs8)c8ncn9c8CCC9)nc7c6)cc4)C5)CC3)c(F)c2)C(=O)N1 (stereo not drawn) is ____.
Solution: < 50 nM

Exercise: Fill in the blank: the reported DC50 of Cn1nc(N2CCC(=O)NC2=O)c2ccc(C3CCN(CC(=O)N4CC5(C4)CN(c4ccc(-c6cc(F)c7c(c6)C(=O)N(C(C(=O)Nc6nccs6)c6ncn8c6CCC8)C7)cn4)C5)CC3(F)F)cc21 (stereo not drawn) is ____.
Solution: < 50 nM

Exercise: Fill in the blank: the reported DC50 of O=C1CC[C@H](Nc2ccc(C3CCN(C(=O)CC4(O)CCN(c5ccc(-c6ccc7cn(C(C(=O)Nc8nccs8)c8ncn9c8CCC9)nc7c6F)cn5)CC4)CC3)c(F)c2)C(=O)N1 (stereo partly drawn) is ____.
Solution: < 50 nM

Exercise: Fill in the blank: the reported DC50 of C[C@@H]1CC(O)(CC(=O)N2CC3(C2)CN(c2ccc(-c4cc(F)c5cn(C(C(=O)Nc6nccs6)c6ncn7c6CCC7)nc5c4)cc2)C3)C[C@H](C)N1c1ccc(NC2CCC(=O)NC2=O)cc1F (stereo partly drawn) is ____.
Solution: < 50 nM

Exercise: Fill in the blank: the reported DC50 of O=C1CCC(Nc2ccc(N3CCC(O)(CC(=O)N4CCC(NC(=O)c5ccc(C#Cc6cc(F)c7c(c6)C(=O)N(C(C(=O)Nc6nccs6)c6ncn8c6CCC8)C7)cn5)CC4)CC3)c(F)c2)C(=O)N1 (stereo not drawn) is ____.
Solution: < 50 nM

Exercise: Fill in the blank: the reported DC50 of O=C1CCC(Nc2ccc(C3CCN(CC(=O)N4CCC(NC(=O)c5ccc(C#Cc6cc(F)c7c(c6)C(=O)N(C(C(=O)Nc6nccs6)c6ncn8c6CCC8)C7)cn5)CC4)CC3)cc2)C(=O)N1 (stereo not drawn) is ____.
Solution: < 50 nM

Exercise: Fill in the blank: the reported DC50 of O=C1CCC(Nc2ccc(N3CCC(O)(CC(=O)N4CC5(C4)CN(c4ccc(-c6cc(F)c7c(c6)C(=O)N(C(C(=O)Nc6ccccn6)c6ncn8c6CCC8)C7)cc4)C5)CC3)c(F)c2)C(=O)N1 (stereo not drawn) is ____.
Solution: < 50 nM
